// data source = ChEMBL document CHEMBL5058577

System: HEK-293T
Assay: Multiplex assay against HEK293T
Format: toxicity, cell-based
Settings: human, 24 h, 1 µM, compound concentration 1 uM, replicate 2
Below, each entry is listed alongside its reported Population Tubulin-Different-Phenotype (%).
The response must be a number in % with no trailing unit.

Would you please look over these solved cases?
- molecule: "O=C(NCCNCC(O)COc1ccc(O)cc1)N1CCOCC1.O=C(NCCNCC(O)COc1ccc(O)cc1)N1CCOCC1.O=C(O)/C=C/C(=O)O (stereo not drawn) [XAMOTEROL FUMARATE]"
  value.observed: 15
- molecule: "Cc1ccc(OCC(O)C(C)NC(C)C)c2c1CCC2.Cl (stereo not drawn)"
  value.observed: 17
- molecule: "Cc1cc(-c2ccc3c(c2)CC[C@H]3N2CC3(CCN(C(=O)Cc4cn5cc(C)sc5n4)CC3)C2)ncn1 [PF-5190457]"
  value.observed: 11
- molecule: "CC(C)C[C@H](CO)Nc1nc(S[C@@H](C)c2ccccc2)nc2nc(N)sc12 [AZD-8797]"
  value.observed: 14
- molecule: "Cc1cc(NC(=O)NCCN2CCC(O)(Cc3ccccc3)CC2)c2ccccc2n1 [PALOSURAN]"
  value.observed: 14
- molecule: "Cc1cc(O)c(-c2ccc([C@@H](C)CN(C)C)cc2)c2c1[nH]c(=O)c1sccc12"
  value.observed: 74
- molecule: "CCn1c(-c2nc3cc(C(=O)N4CCCC(N)C4)ccc3n2C)cc2ccccc21.Cl (stereo not drawn)"
  value.observed: 14

Query (molecule): `COc1cc(OC2CCN(C(C)=O)CC2)ccc1C(=O)N1CCC(N2C(=O)OCc3ccccc32)CC1` ; field requested: Population Tubulin-Different-Phenotype (%)
15

* * *

System: Fibroblast
Assay: Multiplex assay against human fibroblast
Type: toxicity, cell-based
Conditions: 24 h, 10 µM, compound concentration 10 uM, replicate 1
Listed here are compounds together with their documented Population Hoechst High Intensity Objects (%).
Give the quantity in %, number only.

- entry.smiles: "Cc1sc2c(c1C)C(c1ccc(Cl)cc1)=N[C@H](CC(=O)OC(C)(C)C)c1nnc(C)n1-2"
  readout.units: "%"
  value.observed: 8
- entry.smiles: "COc1c(Nc2ccc(S(C)(=O)=O)nc2C)ncnc1OC1CCN(C(=O)OC(C)C)CC1"
  readout.units: "%"
  value.observed: 5
- entry.smiles: "Cc1cc(=O)n(C)c2cc(N3C(=O)CC[C@H](NS(=O)(=O)CC(C)C)[C@H]3c3ccc(Cl)cc3)ccc12"
  readout.units: "%"
  value.observed: 10
- entry.smiles: "Cc1cc(NC(=O)NCCN2CCC(O)(Cc3ccccc3)CC2)c2ccccc2n1"
  readout.units: "%"
  value.observed: 1
- entry.smiles: "Nc1nc(CC(=O)Nc2ccc(CCNC[C@H](O)c3ccccc3)cc2)cs1"
  readout.units: "%"
  value.observed: 2

For `Cc1cc(O)c(-c2ccc([C@@H](C)CN(C)C)cc2)c2c1[nH]c(=O)c1sccc12` , what is its reported Population Hoechst High Intensity Objects (%)?
3

* * *

Tested on: U2OS
Assay: Multiplex assay against U2OS
Format: toxicity, cell-based
Conditions: human, 48 h, 10 µM, compound concentration 10 uM, replicate 1
Non-standard residues stand in square brackets, D forms with d. Residues, ends and D or L forms follow the SMILES beside them.
Listing: Population Normal (%) of selected compounds

Below, each entry is followed by its recorded Population Normal (%) result.
- compound: "Cc1sc2c(c1C)C(c1ccc(Cl)cc1)=N[C@H](CC(=O)OC(C)(C)C)c1nnc(C)n1-2"
  Population Normal (%): "97%"
- compound: "COC(c1ccccc1)(c1ccccc1)[C@H](Oc1nc(C)cc(C)n1)C(=O)O"
  Population Normal (%): "96%"

What value of Population Normal (%) has been recorded for this entry: `Cc1nn(C)c2nc(NNC(=O)Nc3cc(Cl)nc(Cl)c3)cc(C(C)C)c12`
90%

Then this compound: `CCc1nn2c(C)cc(C)nc2c1Cc1ccc(-c2nnc(C3CCNCC3)o2)cc1`
97%

Quick one: `Nc1nc(CC(=O)Nc2ccc(CCNC[C@H](O)c3ccccc3)cc2)cs1`
97%

// query: `Cc1cc(=O)n(C)c2cc(N3C(=O)CC[C@H](NS(=O)(=O)CC(C)C)[C@H]3c3ccc(Cl)cc3)ccc12`
93%

Follow-up item: CC(C)C[C@@H]1NC(=O)[C@@H](C(C)C)NC(=O)[C@@H]2CCCN2C(=O)[C@@H](CC(=O)O)NC(=O)[C@@H](Cc2c[nH]c3ccccc23)NC1=O [BQ-123] (cyclo(L[dW][dD]P[dV]))
98%

* * *

Tested on: U2OS
Assay: Multiplex assay against U2OS
Type: toxicity, cell-based
Details: human, 48 h, 10 µM, compound concentration 10 uM, replicate 2
test.readout: Population Tubulin-Different-Phenotype (%)
Give me the value, and tack the unit on after it.

Consider the following illustrative entries.
- molecule: "CCn1c(-c2nc3cc(C(=O)N4CCCC(N)C4)ccc3n2C)cc2ccccc21.Cl (stereo not given)"
  value.observed: "19%"
- molecule: "CC(C)(C)c1ccc(CSc2cnn(C(C)(C)C)c(=O)c2Cl)cc1"
  value.observed: "4%"
- molecule: "COCCn1c(C)c(C)s/c1=N\\C(=O)C1C(C)(C)C1(C)C"
  value.observed: "2%"
- molecule: "O=c1ccc2ccc(OCCCCN3CCN(c4cccc5sccc45)CC3)cc2[nH]1"
  value.observed: "90%"
- molecule: "CN(C)C(=O)Cn1cc(-c2ccc(-c3nnc4ccccn34)cc2)cn1"
  value.observed: "2%"
- molecule: "Cc1nn(C)c2nc(NNC(=O)Nc3cc(Cl)nc(Cl)c3)cc(C(C)C)c12"
  value.observed: "57%"
- molecule: "CSc1nc(NC2CCCC2)c([N+](=O)[O-])c(NC2CCCC2)n1"
  value.observed: "3%"
- molecule: "COc1ccc2[nH]c(I)c(CCNC(C)=O)c2c1"
  value.observed: "4%"

I would be grateful if you could share the reported Population Tubulin-Different-Phenotype (%) for `Cc1cc(-c2ccc3c(c2)CC[C@H]3N2CC3(CCN(C(=O)Cc4cn5cc(C)sc5n4)CC3)C2)ncn1` .
4%

Try the molecule `S=C(NCCCc1c[nH]cn1)NCCCN(Cc1ccc(Cl)c(Cl)c1)c1ccc(Br)cn1`
57%

* * *

# Population Healthy Nuclei (%) values compiled below
Test system: HEK-293T
Test: Multiplex assay against HEK293T
Format: toxicity, cell-based
Conditions: human, 48 h, 1 µM, compound concentration 1 uM, replicate 2
Lab book: enter the figure in %, no units written.

Consider the reported Population Healthy Nuclei (%) for these compounds:
- compound: "CCCCCCNC(=O)Nc1ccc(S(=O)(=O)Nc2ccc(CCNC[C@H](O)COc3ccc(O)cc3)cc2)cc1"
  readout.units: "%"
  Population Healthy Nuclei (%): 80
- compound: "O=c1nc2[nH]c3ccccc3nc-2c(=O)[nH]1"
  readout.units: "%"
  Population Healthy Nuclei (%): 82

Here is the next item to consider.
Which Population Healthy Nuclei (%) reading was recorded for the compound `Cn1cc(C(=O)OCC2CCN(CCNS(C)(=O)=O)CC2)c2ccccc21` ?
82

* * *

Test system: U2OS
Test: Multiplex assay against U2OS
Type: toxicity, cell-based
Conditions: human, 48 h, 1 µM, compound concentration 1 uM, replicate 2
The entries below come with measured Population Mitotic Cells (%) values attached.
All answers are understood in %, so give the number only.

Illustrative cases are given below, each with its answer.
- compound: "CCCCC[C@H](O)/C=C/[C@H]1[C@H](O)CC(=O)[C@@H]1CCCCCCC(=O)O [ALPROSTADIL]"
  target.of.assay: "U2OS"
  readout.units: "%"
  Population Mitotic Cells (%): 4
- compound: "CCn1c(-c2nc3cc(C(=O)N4CCCC(N)C4)ccc3n2C)cc2ccccc21.Cl (centres undefined)"
  target.of.assay: "U2OS"
  readout.units: "%"
  Population Mitotic Cells (%): 30
- compound: "COCCn1c(C)c(C)s/c1=N\\C(=O)C1C(C)(C)C1(C)C"
  target.of.assay: "U2OS"
  readout.units: "%"
  Population Mitotic Cells (%): 0

Could you now look at the following compound, please?
What value of measured Population Mitotic Cells (%) is listed for C=CCN1C[C@H](C(=O)N(CCCN(C)C)C(=O)NCC)C[C@@H]2c3cccc4[nH]cc(c34)C[C@H]21 [CABERGOLINE] ?
6

* * *

System: HEK-293T
Assay: Multiplex assay against HEK293T
Format: toxicity, cell-based
Conditions: human, 24 h, 1 µM, compound concentration 1 uM, replicate 1
Assign class by Population Fragmented Nuclei (%): not lower than 10% means y; lower than 10% means n.

- compound: "CCCCCCNC(=O)Nc1ccc(S(=O)(=O)Nc2ccc(CCNC[C@H](O)COc3ccc(O)cc3)cc2)cc1"
  classification: "n"

Given `COc1ccc2c(c1OCc1ccccc1)C[C@@H](C(=O)O)N(C(=O)C(c1ccccc1)c1ccccc1)C2` , state whether its Population Fragmented Nuclei (%) is at least 10%.
y

Try this compound too: Cc1ccc(OCC(O)C(C)NC(C)C)c2c1CCC2.Cl (stereo unspecified)
n

Do the same for `COc1cc2nc(N3CCN(C(=O)COc4c(OC)cccc4C(C)C)CC3)nc(N)c2cc1OC.Cl.Cl` please
y

How about this compound: `C=CCN1C[C@H](C(=O)N(CCCN(C)C)C(=O)NCC)C[C@@H]2c3cccc4[nH]cc(c34)C[C@H]21`
n

For CCC(=O)OCC(=O)[C@@]1(OC(=O)CC)[C@@H](C)C[C@H]2[C@@H]3CCC4=CC(=O)C=C[C@]4(C)[C@@]3(Cl)[C@@H](O)C[C@@]21C [BECLOMETHASONE DIPROPIONATE] then?
n

Quick one: `CSc1nc(NC2CCCC2)c([N+](=O)[O-])c(NC2CCCC2)n1`
y

Then this compound: CN(C)C/C=C/C(=O)Nc1ccc(C(=O)N2CCCC(Nc3ncc(Cl)c(-c4c[nH]c5ccccc45)n3)C2)cc1 (stereo unspecified)
y
